Method: fission yeast growth modulation, primary screen, strain 972, OD600, 24 h, no modulator (AID 1090);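 note: basal condition with compound alone and no growth modifier present; test concentration not given here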
Stated conditions: S. pombe 972 growth, higher = more signal, called active from +8 up or from −8 down
Just so you know, the groups by z-score go like this: I: < -2; II: ≥ -2 and < 0.09; III: ≥ 0.09

Qu. Looking at CCCCCN1CC=CC23O[C@@H]4/C=C\CCC(C)OC(=O)C4[C@H]2C(=O)N(CCCCCO)[C@@H]3C1=O (some centres not stated) , which class would you pick?
Ans. II

Qu. Looking at [N-]=[N+]=NCc1ccccc1C[C@]1(C(=O)NCC(O)CO)N=C(c2ccc(OCCCO)cc2)O[C@H]1c1ccccc1N=[N+]=[N-] (some centres not stated) , which class would you pick?
Ans. III

---
Qu. Looking at CC(C)N1C(=O)C[C@@](C(=O)NCc2ccccc2)(c2ccc([N+](=O)[O-])cc2)[C@H]1c1ccc(CO)cc1 , which class would you pick?
Ans. II

Qu. Looking at C=CC[C@@]1(C(=O)N2CCOCC2)N=C(c2ccc(OCCCO)cc2)O[C@@H]1c1ccccc1N=[N+]=[N-] , which class would you pick?
Ans. II

Qu. Looking at CN(C)C(=O)[C@@]1(CCC(=O)OC(C)(C)C)N=C(c2ccc(OCCCO)cc2)O[C@H]1c1ccccc1 , which class would you pick?
Ans. II

Qu. Looking at COC(=O)[C@@]1(Cc2ccc(F)cc2)[C@H]2c3cc(C(=O)N4CCCC4)n(Cc4cccc5ccccc45)c3C[C@H]2CN1C(=O)c1ccccc1 , which class would you pick?
Ans. III

Qu. Looking at CCOC(=O)C1=CCC(C(C)(C)C)N(S(=O)(=O)c2ccc(C)cc2)C1 (configuration not stated) , which class would you pick?
Ans. II

Qu. Looking at Cc1ccc(S[C@]2(C(=O)O)CC(=O)N(C3Cc4ccccc4C3)[C@@H]2c2ccc(CO)cc2I)cc1 , which class would you pick?
Ans. II

Qu. Looking at COC(=O)[C@@]1(Cc2ccccc2N=[N+]=[N-])COC(c2ccc(OCCCO)cc2)=N1 , which class would you pick?
Ans. I

Qu. Looking at CC(C)N1C(=O)c2ccccc2[C@@H](C(=O)NCCCN(C)C)[C@@H]1c1ccc(CO)cc1 , which class would you pick?
Ans. II
